Attribution: ChEMBL document CHEMBL1136058

target: Epidermal growth factor receptor (Homo sapiens, UniProt P00533); experiment: Inhibition of epidermal growth factor receptor (EGFR)
Sequence (P00533 whole entry): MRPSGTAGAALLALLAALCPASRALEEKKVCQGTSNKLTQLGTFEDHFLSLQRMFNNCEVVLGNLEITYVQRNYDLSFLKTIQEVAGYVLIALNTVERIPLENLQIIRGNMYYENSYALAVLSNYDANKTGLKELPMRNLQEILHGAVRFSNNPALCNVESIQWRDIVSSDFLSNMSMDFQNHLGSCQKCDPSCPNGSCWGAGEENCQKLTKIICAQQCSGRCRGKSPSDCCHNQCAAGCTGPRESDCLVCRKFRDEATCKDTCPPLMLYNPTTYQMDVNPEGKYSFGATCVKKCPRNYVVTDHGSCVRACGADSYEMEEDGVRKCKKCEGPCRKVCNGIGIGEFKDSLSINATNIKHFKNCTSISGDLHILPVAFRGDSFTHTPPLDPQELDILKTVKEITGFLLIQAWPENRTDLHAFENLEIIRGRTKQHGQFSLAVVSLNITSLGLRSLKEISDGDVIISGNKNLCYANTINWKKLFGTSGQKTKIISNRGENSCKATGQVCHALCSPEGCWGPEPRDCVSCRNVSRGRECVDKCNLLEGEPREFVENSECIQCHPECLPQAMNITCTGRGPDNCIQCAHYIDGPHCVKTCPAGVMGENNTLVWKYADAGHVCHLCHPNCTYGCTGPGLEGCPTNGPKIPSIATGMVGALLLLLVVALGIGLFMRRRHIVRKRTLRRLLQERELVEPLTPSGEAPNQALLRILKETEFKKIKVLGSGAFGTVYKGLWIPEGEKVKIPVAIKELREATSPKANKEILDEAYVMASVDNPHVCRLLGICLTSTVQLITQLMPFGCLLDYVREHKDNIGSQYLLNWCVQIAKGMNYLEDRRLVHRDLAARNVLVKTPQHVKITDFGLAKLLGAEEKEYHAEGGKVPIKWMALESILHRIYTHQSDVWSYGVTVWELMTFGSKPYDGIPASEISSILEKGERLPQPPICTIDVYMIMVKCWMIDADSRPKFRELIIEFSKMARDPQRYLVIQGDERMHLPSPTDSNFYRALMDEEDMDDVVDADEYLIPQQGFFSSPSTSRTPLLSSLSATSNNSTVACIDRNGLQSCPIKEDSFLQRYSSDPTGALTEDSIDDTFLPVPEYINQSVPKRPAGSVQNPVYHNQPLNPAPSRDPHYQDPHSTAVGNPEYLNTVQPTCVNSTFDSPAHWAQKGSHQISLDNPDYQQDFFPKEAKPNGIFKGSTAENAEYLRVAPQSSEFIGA
measure-name: pIC50
By convention, pIC50 is the negative base-10 log of a molar concentration.

Looking for the measured pIC50 of "COc1cc2cc3ncc(C#N)c(Nc4ccc(F)c(Cl)c4)c3cc2cc1OC" , can you help?
4.74

====

molecular target: Dual specificity mitogen-activated protein kinase kinase 1 (Homo sapiens, UniProt Q02750); assay: Inhibition of Dual specificity mitogen-activated protein kinase kinase (MEK-1)
Sequence (Q02750 whole entry): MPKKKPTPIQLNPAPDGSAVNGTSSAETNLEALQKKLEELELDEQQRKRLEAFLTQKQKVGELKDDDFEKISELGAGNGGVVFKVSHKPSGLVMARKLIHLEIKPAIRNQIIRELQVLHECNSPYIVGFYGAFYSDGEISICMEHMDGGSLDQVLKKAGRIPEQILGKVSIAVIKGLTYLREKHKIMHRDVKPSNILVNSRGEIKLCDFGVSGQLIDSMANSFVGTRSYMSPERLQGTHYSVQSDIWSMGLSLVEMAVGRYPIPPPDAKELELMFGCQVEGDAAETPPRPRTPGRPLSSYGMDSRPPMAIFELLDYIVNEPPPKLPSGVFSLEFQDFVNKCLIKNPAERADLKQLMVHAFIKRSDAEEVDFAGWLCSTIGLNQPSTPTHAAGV
measure-name: IC50 (nM)
Enter your answer as a number in nM; do not include the unit.

Which IC50 value belongs to "COc1cc2cc3ncc(C#N)c(Nc4ccc(Oc5ccccc5)cc4)c3cc2cc1OC" ?
10
